Field: glass transition temperature. Provide a value for each of the compounds that follow.
I only need the number, in °C, no unit after it.

Prompt: Quick one: glass transition temperature of *Oc1ccc(C(c2ccc(Oc3cccc4c3C(=O)N(c3ccc(Oc5ccc(N6C(=O)c7cccc(*)c7C6=O)cc5)cc3)C4=O)cc2)(C(F)(F)F)C(F)(F)F)cc1 (repeat unit) ?
Completion: 226.00

Prompt: Quick one: glass transition temperature of *Oc1cccc(C(C)(C)c2ccc(Oc3ccc4c(c3)C(=O)N(c3cccc(N5C(=O)c6ccc(*)cc6C5=O)c3)C4=O)cc2)c1 (repeat unit) ?
Completion: 215.00

Prompt: Quick one: glass transition temperature of *c1ccc2c(c1)C(=O)N(c1ccc(OCC(F)(F)C(F)(F)C(F)(F)F)c(N3C(=O)c4ccc(C(*)(C(F)(F)F)C(F)(F)F)cc4C3=O)c1)C2=O (repeat unit) ?
Completion: 266.00

Prompt: Quick one: glass transition temperature of *c1ccc(-c2ccc(N3C(=O)c4cc5c(cc4C3=O)C(c3ccccc3)(C(F)(F)F)c3cc4c(cc3O5)C(=O)N(*)C4=O)cc2C(F)(F)F)c(C(F)(F)F)c1 (repeat unit) ?
Completion: 400.00

Prompt: Quick one: glass transition temperature of *Oc1cccc(Oc2ccc(Oc3cccc4c3C(=O)N(c3cccc(N5C(=O)c6cccc(*)c6C5=O)c3)C4=O)cc2)c1 (repeat unit) ?
Completion: 238.00

Prompt: Quick one: glass transition temperature of *Oc1cccc(S(=O)(=O)c2ccc(Oc3cccc4c3C(=O)N(c3ccc(Oc5ccc(N6C(=O)c7cccc(*)c7C6=O)cc5)cc3)C4=O)cc2)c1 (repeat unit) ?
Completion: 267.00

Prompt: Quick one: glass transition temperature of *c1cccc2c1C(=O)N(c1ccc(Oc3ccc(N4C(=O)c5cccc(*)c5C4=O)cc3)cc1)C2=O (repeat unit) ?
Completion: 306.00

Prompt: Quick one: glass transition temperature of *Oc1ccc2c(c1)C(=O)N(c1cccc(Oc3ccc(C(=O)c4ccc(Oc5cccc(N6C(=O)c7cccc(*)c7C6=O)c5)cc4)cc3)c1)C2=O (repeat unit) ?
Completion: 205.50

Prompt: Quick one: glass transition temperature of *Oc1cccc(Sc2ccc(Oc3cccc4c3C(=O)N(c3cccc(N5C(=O)c6cccc(*)c6C5=O)c3)C4=O)cc2)c1 (repeat unit) ?
Completion: 231.00

Prompt: Quick one: glass transition temperature of *C(=O)Oc1ccc2ccccc2c1-c1c(OC(=O)c2ccc3c(c2)C(=O)N(c2ccc(C(=O)Oc4ccc5ccccc5c4-c4c(OC(=O)c5ccc(N6C(=O)c7ccc(*)cc7C6=O)cc5)ccc5ccccc45)cc2)C3=O)ccc2ccccc12 (repeat unit) ?
Completion: 266.50

====

Field: glass transition temperature. Provide a value for each of the molecules that follow.
I only need the number, in °C, no unit after it.

Prompt: Quick one: glass transition temperature of *CCc1ccc(CCNC(=O)CCCCCCCCCCCCCCCCC(=O)N*)cc1 (repeat unit) ?
Completion: 75.00

Prompt: Quick one: glass transition temperature of *C(=O)Nc1ccc(Cc2ccc(NC(=O)c3ccc4c(c3)C(=O)N(c3ccc(NC(=O)Nc5ccc(N6C(=O)c7ccc(*)cc7C6=O)cc5)cc3)C4=O)cc2)cc1 (repeat unit) ?
Completion: 211.00

Prompt: Quick one: glass transition temperature of *CCCC(C)O[Si](C)(C)O* (repeat unit) ?
Completion: -81.00

Prompt: Quick one: glass transition temperature of *CCC1C(=O)N(CCC)C(=O)C1* (repeat unit) ?
Completion: 90.40

Prompt: Quick one: glass transition temperature of *Nc1ccc(NC(=O)c2cc(C(*)=O)c(C(=O)O)cc2C(=O)O)cc1 (repeat unit) ?
Completion: 283.40

Prompt: Quick one: glass transition temperature of *c1ccc(-c2ccc(-c3ccc(-c4ccc(-c5ccc6c(c5)C(=O)N(c5cccc(N7C(=O)c8ccc(*)cc8C7=O)c5)C6=O)cc4)cc3)cc2)cc1 (repeat unit) ?
Completion: 237.00

Prompt: Quick one: glass transition temperature of *CC(*)N1CCCC1=S (repeat unit) ?
Completion: 80.00

Prompt: Quick one: glass transition temperature of */C=C(/*)C(CCCCC)[Si](C)(C)C (repeat unit) ?
Completion: 170.00

Prompt: Quick one: glass transition temperature of *c1ccc(-c2ccc(-n3c(=O)c4c(C(F)(F)F)c5c(=O)n(*)c(=O)c5c(C(F)(F)F)c4c3=O)cc2C)c(C)c1 (repeat unit) ?
Completion: 385.00

Prompt: Quick one: glass transition temperature of *CC(*)C(=O)OCCOC(=O)c1cc([N+](=O)[O-])cc([N+](=O)[O-])c1 (repeat unit) ?
Completion: 60.80

Prompt: Quick one: glass transition temperature of *c1cccc(C(=O)Nc2ccc(Oc3ccc(S(=O)(=O)c4ccc(Oc5ccc(NC(=O)c6cccc(N7C(=O)c8ccc(-c9cccc%10c9C(=O)N(*)C%10=O)cc8C7=O)c6)cc5)cc4)cc3)cc2)c1 (repeat unit) ?
Completion: 263.00

Prompt: Quick one: glass transition temperature of *c1ccc(C(=O)Oc2c(C)cc(C(c3cccnc3)c3cc(C)c(OC(=O)c4ccc(N5C(=O)CC(Nc6cccc(NC7CC(=O)N(*)C7=O)c6)C5=O)cc4)c(C)c3)cc2C)cc1 (repeat unit) ?
Completion: 194.00

Prompt: Quick one: glass transition temperature of *CC(*)C(=O)OCCCCCCCCCCCOc1ccc(C(=O)Oc2ccc(-c3ccc(OC(C)CCCCCC)cc3)cc2)cc1 (repeat unit) ?
Completion: 50.00

Prompt: Quick one: glass transition temperature of *CCCCCOc1cccc(C(=O)OC(=O)c2cccc(O*)c2)c1 (repeat unit) ?
Completion: 61.00

Prompt: Quick one: glass transition temperature of *c1ccc2oc(C3CCC(c4nc5cc(C(*)(C(F)(F)F)C(F)(F)F)ccc5o4)CC3)nc2c1 (repeat unit) ?
Completion: 271.00

Prompt: Quick one: glass transition temperature of *CCOCCOC(=O)CCC(=O)O* (repeat unit) ?
Completion: -38.20

====

Field: glass transition temperature. Provide a value for each of the compounds that follow.
I only need the number, in °C, no unit after it.

Prompt: Quick one: glass transition temperature of *c1cc(CCCC)c(*)s1 (repeat unit) ?
Completion: 54.50

Prompt: Quick one: glass transition temperature of *CCCCCCCOC(=O)c1ccc(-c2ccc(C(=O)O*)cc2)cc1 (repeat unit) ?
Completion: 44.00

Prompt: Quick one: glass transition temperature of *Cc1cc(C23CC4CC(CC(C4)C2)C3)cc(CN(*)c2ccccc2)c1O (repeat unit) ?
Completion: 109.40

Prompt: Quick one: glass transition temperature of *O[Si](C=C)(C=C)O[Si](C)(C)c1ccc([Si](*)(C)C)cc1 (repeat unit) ?
Completion: -71.00

Prompt: Quick one: glass transition temperature of *Nc1cccc(CCc2ccc(NC(=O)c3cccc(C(*)=O)c3)cc2)c1 (repeat unit) ?
Completion: 203.00

Prompt: Quick one: glass transition temperature of *Oc1ccc(C(c2ccc(Oc3c(F)c(F)c(COC(c4cccc(C(OCc5c(F)c(F)c(*)c(F)c5F)(C(F)(F)F)C(F)(F)F)c4)(C(F)(F)F)C(F)(F)F)c(F)c3F)cc2)(C(F)(F)F)C(F)(F)F)cc1 (repeat unit) ?
Completion: 113.00

Prompt: Quick one: glass transition temperature of *CCOCCOC(=O)C(=O)O* (repeat unit) ?
Completion: -28.00

Prompt: Quick one: glass transition temperature of *Oc1ccc(C(=O)OCCCCOC(=O)c2ccc(*)cc2)cc1 (repeat unit) ?
Completion: 38.00

Prompt: Quick one: glass transition temperature of *OP(=O)(Oc1cccc2c(*)cccc12)OC1CCCCC1 (repeat unit) ?
Completion: 134.00

Prompt: Quick one: glass transition temperature of */C(C)=C(/*)CCCCC (repeat unit) ?
Completion: 180.00

Prompt: Quick one: glass transition temperature of *Oc1ccc(C(=O)Nc2cc(NC(=O)c3ccc(*)cc3)cc(C(=O)OCCOC(=O)/C=C/c3ccc(N(C)C)cc3)c2)cc1 (repeat unit) ?
Completion: 182.00

Prompt: Quick one: glass transition temperature of *c1cccc(N2C(=O)c3ccc(Oc4ccc5cc(Oc6ccc7c(c6)C(=O)N(*)C7=O)ccc5c4)cc3C2=O)c1 (repeat unit) ?
Completion: 230.00

Prompt: Quick one: glass transition temperature of *CC(*)C(=O)OCCOCCOC(F)(F)C(F)F (repeat unit) ?
Completion: -40.00

Prompt: Quick one: glass transition temperature of *CCOCCOC(=O)CCCCCC(=O)O* (repeat unit) ?
Completion: -41.50

Prompt: Quick one: glass transition temperature of *CCCCCOC(=O)c1ccc(-c2ccc(-c3ccc(C(=O)O*)cc3)cc2)cc1 (repeat unit) ?
Completion: 40.00

Prompt: Quick one: glass transition temperature of *CC(*)c1ccc(COCCCC)cc1 (repeat unit) ?
Completion: 10.00

Prompt: Quick one: glass transition temperature of *c1ccc(Oc2ccc(-c3ccc(Oc4ccc(N5C(=O)c6ccc(Oc7ccc(C8(c9ccc(Oc%10ccc%11c(c%10)C(=O)N(*)C%11=O)cc9)CCC(C(C)(C)C)CC8)cc7)cc6C5=O)cc4)cc3C)c(C)c2)cc1 (repeat unit) ?
Completion: 236.00
